The measured values listed here are drawn from PubChem BioAssay.

# ASSAY OVERVIEW: HUVEC growth inhibition – cell-based, human, primary screen (AID 575);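 also: 100% = median of untreated cell wells with 0.1% DMSO on each plate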
# CONDITION DETAILS: HUVEC proliferation, CellTiter-Glo luminescence, 72 h; at 10 µM; hits give low values
Quick list: viability per entry.

COMPOUND: CCn1cc(C(=O)NCC2CCCO2)c(=O)c2cc(S(=O)(=O)N(C)C)ccc21 (centres undefined)
RESULT UNITS: %
viability: 105

COMPOUND: CCOCCCNC(=O)C(c1ccc(C)cc1)N(Cc1ccc2c(c1)OCO2)C(=O)c1cnccn1 (centres undefined)
RESULT UNITS: %
viability: 103

COMPOUND: O=C(/C=C/N1CCOCC1)c1ccc(-c2ccccc2)cc1
RESULT UNITS: %
viability: 81.8

COMPOUND: CC1(C)CC(=O)CC(C2(O)C(=O)N(Cc3ccccc3)c3ccccc32)O1 (centres undefined)
RESULT UNITS: %
viability: 78.3

COMPOUND: O=C(CCN1C(=O)c2ccccc2C1=O)NCCN1CCOCC1
RESULT UNITS: %
viability: 86.3

COMPOUND: CCSc1nnc(N2C(=O)CC(c3ccsc3)C3=C2CC(C)(C)CC3=O)s1 (centres undefined)
RESULT UNITS: %
viability: 81.3

COMPOUND: CCCCN(C(=O)c1ccc(Cl)cc1)C1CC2CCC(C1)N2C (centres undefined)
RESULT UNITS: %
viability: 78.2

COMPOUND: Cc1cccc(C)c1OCc1nnc(SCC(=O)Nc2ccccc2F)o1
RESULT UNITS: %
viability: 108

COMPOUND: O=C(NC1CCN(Cc2ccccc2)CC1)C1CCN(S(=O)(=O)c2cccc3cccnc23)CC1
RESULT UNITS: %
viability: 86.9

COMPOUND: Cc1ccc(C(=O)OCC(=O)Nc2ccc3c(c2)OCO3)o1
RESULT UNITS: %
viability: 102

COMPOUND: Cc1cnc(NC(=O)CSc2nnc(COc3c(C)cccc3C)o2)s1
RESULT UNITS: %
viability: 79.9

COMPOUND: COc1cc(C(=O)Nc2cccc(-c3nncn3C)c2)cc(OC)c1OC
RESULT UNITS: %
viability: 101

COMPOUND: CC(Oc1ccccc1)C(=O)NC1CC(C)(C)NC(C)(C)C1 (centres undefined)
RESULT UNITS: %
viability: 79.8

COMPOUND: COC(=O)c1nc2n(n1)C(c1ccc(OC)c(OC)c1)C(C(=O)OC1CCCCC1)=C(C)N2 (centres undefined)
RESULT UNITS: %
viability: 88.9

COMPOUND: O=C(CN1CCN(Cc2ccc(F)cc2Cl)C1=O)NCCCN1CCOCC1
RESULT UNITS: %
viability: 95.2

COMPOUND: CCOC(=O)C1CCN(Cc2ccc(F)c(Br)c2)CC1
RESULT UNITS: %
viability: 106

COMPOUND: COc1ccc(N2CCN(CCNC(=O)CCS(=O)(=O)c3cccc4nsnc34)CC2)cc1
RESULT UNITS: %
viability: 99.9

COMPOUND: O=C(c1ccco1)N1CCN(C(=O)c2sccc2-c2ccccc2)CC1
RESULT UNITS: %
viability: 86.2

COMPOUND: Cc1nn(C(=O)c2ccc3c(c2)OCO3)c(N)c1-c1ccccc1
RESULT UNITS: %
viability: 98.3

COMPOUND: CCCCn1c2c(c3ccccc31)CCc1nonc1-2
RESULT UNITS: %
viability: 89.6

COMPOUND: CSc1nc2ccccc2c(=O)n1N
RESULT UNITS: %
viability: 93.9

COMPOUND: O=P(O)(CCc1ccccc1)CN1CCCCC1
RESULT UNITS: %
viability: 102

COMPOUND: O=C(CCCn1c(=O)[nH]c2ccsc2c1=O)N1CCN(c2ccccn2)CC1
RESULT UNITS: %
viability: 99.5

COMPOUND: Cc1ccc(C)c2[nH]c(=O)c(CCNC(=O)c3ccc(S(=O)(=O)N(C)C)cc3)cc12
RESULT UNITS: %
viability: 88.1

COMPOUND: CCOC(=O)C(C(=O)OCC)C(C)C#CCN1CCCCC1 (centres undefined)
RESULT UNITS: %
viability: 87.2

COMPOUND: CSc1cccc(NS(=O)(=O)c2ccccc2)c1
RESULT UNITS: %
viability: 107

COMPOUND: COc1ccc(NC(=O)Nc2ccc(N3CCCC3=O)cc2)cc1OC
RESULT UNITS: %
viability: 104

COMPOUND: Cn1c(C(=O)Nc2ccc3c(c2)OCO3)cc2c(=O)n(C)c3ccccc3c21
RESULT UNITS: %
viability: 72.6

COMPOUND: COc1ccccc1C(=O)OCn1nnc2ccccc2c1=O
RESULT UNITS: %
viability: 78.8

COMPOUND: CCOc1ccc(NC2c3ccccc3C(=O)N2Cc2ccco2)cc1 (centres undefined)
RESULT UNITS: %
viability: 98.7

COMPOUND: Cc1cccc(-n2ncc3c(NCc4cccnc4)ncnc32)c1
RESULT UNITS: %
viability: 99.3

COMPOUND: O=C(Cn1ncc2c1-c1ccccc1OC2)Nc1ccc(Cl)cn1
RESULT UNITS: %
viability: 80.1

COMPOUND: COC(=O)Cn1ncc2c(C)n(Cc3ccccc3)c(C)c2c1=O
RESULT UNITS: %
viability: 107

COMPOUND: O=C(CN1CCN(Cc2ccccc2)CC1)NCC1COc2ccccc2O1 (centres undefined)
RESULT UNITS: %
viability: 110

COMPOUND: NC(=O)C1CCN(C(=O)c2cc3n(n2)C(C(F)(F)F)CC(c2ccco2)N3)CC1 (centres undefined)
RESULT UNITS: %
viability: 104

COMPOUND: O=C(CCNS(=O)(=O)c1cccc2nsnc12)Nc1ccc2c(c1)OCCO2
RESULT UNITS: %
viability: 88.7

COMPOUND: CCC(=O)N1CCN(c2nc(-c3ccccc3)c3c(c2C#N)CCCC3)CC1
RESULT UNITS: %
viability: 97.2

COMPOUND: CCN1CCCC1CNC(=O)c1cc2c(=O)n(C)c3ccccc3c2n1C (centres undefined)
RESULT UNITS: %
viability: 74.7

COMPOUND: Cn1cnc2cc(NC(=O)c3ccc(Cl)cc3)ccc21
RESULT UNITS: %
viability: 88.1

COMPOUND: COc1cc2c(cc1OC)CN(C(=O)CSc1nc3[nH]ncc3c(=O)n1-c1ccccc1)CC2
RESULT UNITS: %
viability: 79.7

COMPOUND: CCOC(=O)C1CCN(C(=O)CN(c2ccc(Cl)c(C(F)(F)F)c2)S(C)(=O)=O)CC1
RESULT UNITS: %
viability: 107

COMPOUND: O=C(CSc1ccc2nnc(-c3ccccc3)n2n1)N1CCN(c2ccccc2)CC1
RESULT UNITS: %
viability: 77.9

COMPOUND: O=C(NCc1ccc2c(c1)OCO2)C1CCCN(S(=O)(=O)c2cccc3cccnc23)C1 (centres undefined)
RESULT UNITS: %
viability: 70

COMPOUND: O=C(NC1(C(=O)NC2CCCCC2)CCCCC1)c1ccc2c(c1)OCO2
RESULT UNITS: %
viability: 105

====

Quick list: inhibition per entry.
# ASSAY OVERVIEW: growth suppression of yeast trafficking mutant, preliminary HTS, modulators of trafficking downstream of Golgi apparatus project, 1536-format plate, OD 615 nm (AID 637)
# CONDITION DETAILS: yeast transport mutant growth, absorbance 615 nm, 18 h; hits give high values
The source made the active and inactive calls. No stated cut-off is given here; in the data, active means inhibition above about 30%; inactive means the rest.

COMPOUND: CC1CCCN(C(=O)CN2C(=O)c3ccccc3C2=O)C1 (stereo unspecified)
inhibition: -6.33% (inactive)
//
COMPOUND: CCOC(=O)CN1C(=O)C(=O)c2cccc(C)c21
inhibition: -0.5% (inactive)
//
COMPOUND: c1ccn2c(SCc3ccc4c(c3)OCCO4)nnc2c1
inhibition: 1.67% (inactive)
//
COMPOUND: CC1=C(C(=O)Nc2cccnc2)C(c2ccc(C(C)C)cc2)n2ncnc2N1 (stereo unspecified)
inhibition: -2.83% (inactive)
//
COMPOUND: O=C(Nc1c(C(=O)NCc2ccco2)cnn1-c1ccccc1)c1ccc(F)cc1
inhibition: -6% (inactive)
//
COMPOUND: Cc1ccc2[nH]c(=O)c3cc(C(=O)NCCN4CCN(C)CC4)sc3c2c1
inhibition: 6% (inactive)
//
COMPOUND: COc1cccc(-c2nc(CS(=O)(=O)CC(=O)Nc3cc(C)ccc3C)c(C)o2)c1
inhibition: -4.1% (inactive)
//
COMPOUND: COc1ccc(-n2c(=O)c3c4c(sc3n3cnnc23)CC(C)CC4)cc1 (stereo unspecified)
inhibition: 0.98% (inactive)
//
COMPOUND: CCOc1ccc(NS(=O)(=O)c2cc(Cl)ccc2OC)cc1
inhibition: -5.09% (inactive)
//
COMPOUND: CN(CCCNC(=O)c1cn(C)c2ccc(S(=O)(=O)N(C)C)cc2c1=O)c1ccccc1
inhibition: -1% (inactive)
//
COMPOUND: COc1ccc(-c2nc(CSCC(=O)N3CCc4ccccc4C3)c(C)o2)cc1OC
inhibition: -0.5% (inactive)
